Origin of measurements: patent US20250171459A1

TARGET OF ASSAY: APOL1 (Homo sapiens)
RUN DESCRIPTION: MultiTox-Fluor Multiplex Cytotoxicity Assay in tet-inducible APOL1 T-REx-HEK293 cells (cell rescue, ratio of dead to live cells)
ASSAY CONTEXT: tet-inducible transgenic APOL1 T-REx-HEK293 cell lines, 50 ng/mL tet, 24 hours; read-out: IP50 (i.e., IC50 for cell proliferation)
MEASUREMENT NAME: IC50

IC50 of CCc1cc2c(s1)CCO[C@@]21CCN(Cc2cnc(OCC3(N)CCCCC3)nc2)[C@@H](C)C1 on APOL1 (Homo sapiens)?
< 100 nM

Then this molecule: CC1CO[C@@]2(CCN(Cc3cn(CCS(C)(=O)=O)nn3)[C@@H](C)C2)c2cc(C(F)(F)F)sc21 (stereo partly drawn)
< 100 nM

Then this molecule: C[C@H]1C[C@@]2(CCN1C[C@H]1C[C@@H](NC(=O)C3CC(F)(F)C3)C1)OCCc1cc(CC(F)F)sc12
< 100 nM

Then this molecule: CCc1cc2c(s1)CCO[C@@]21CCN(Cc2cn(CC3(CO)CCOCC3)nn2)[C@@H](C)C1
100 to 500 nM

Then this molecule: Cc1cncc(CN2CC[C@]3(C[C@@H]2C)OC[C@H](O)c2cc(Cl)sc23)c1
100 to 500 nM

Then this molecule: CCc1cc2c(s1)CCO[C@@]21CCN(Cc2cn(CC3COCCN3)nn2)[C@@H](C)C1 (stereo partly drawn)
< 100 nM

* * *

TARGET OF ASSAY: APOL1 (Homo sapiens, UniProt O14791)
Sequence (O14791 1-398 S342G/I384M): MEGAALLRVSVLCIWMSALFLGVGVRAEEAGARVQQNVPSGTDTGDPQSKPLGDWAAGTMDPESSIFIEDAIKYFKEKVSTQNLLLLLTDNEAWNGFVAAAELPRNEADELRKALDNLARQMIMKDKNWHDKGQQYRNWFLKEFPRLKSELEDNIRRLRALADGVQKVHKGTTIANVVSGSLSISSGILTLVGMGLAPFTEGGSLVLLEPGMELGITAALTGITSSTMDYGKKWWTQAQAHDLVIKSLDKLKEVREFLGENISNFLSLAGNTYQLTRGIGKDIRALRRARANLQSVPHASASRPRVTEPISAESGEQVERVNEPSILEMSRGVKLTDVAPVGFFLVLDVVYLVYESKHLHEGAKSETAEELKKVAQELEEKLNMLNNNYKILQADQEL
RUN DESCRIPTION: MultiTox-Fluor Multiplex Cytotoxicity Assay in tet-inducible APOL1 T-REx-HEK293 cells (cell rescue, ratio of dead to live cells)
ASSAY CONTEXT: tet-inducible transgenic APOL1 T-REx-HEK293 cell lines, 50 ng/mL tet, 24 hours; read-out: IP50 (i.e., IC50 for cell proliferation)
Protocol: The MultiTox-Fluor Multiplex Cytotoxicity Assay is a single-reagent-addition, homogeneous, fluorescence assay that measures the number of live and dead cells simultaneously in culture wells. […] The MultiTox reagent was added to each well and placed back in the incubator for an additional 30 minutes. The plate was read on the EnVision plate reader. A ratio of dead to live cells was used to normalize, and data was imported, analyzed, and fit using Genedata Screener (Basel, Switzerland) software. […]
pIC50: −log10 of the molar value.
Exercise: for every item that follows, state its recorded pIC50.

Requested read-out: pIC50. Entry: C[C@H]1C[C@@]2(CCN1Cc1cncnc1)OCCc1cc(CC(F)F)sc12 [Compound 567]
> 7.00

Then this compound: CCc1cc2c(s1)CCOC21CCN(Cc2ccc(C(=O)N[C@H](CC)CO)nc2)CC1 [Compound 1053]
> 7.00

Then this compound: CCc1cc2c(s1)CCO[C@@]21CCN(Cc2cn(-c3cncc(F)c3)nn2)[C@@H](C)C1 [Compound 71]
> 7.00

Then this compound: C[C@H]1C[C@@]2(CCN1Cc1cnn(CC(O)C3CCCO3)c1)OCCc1c2sc(C(F)(F)F)c1CO (stereo partly shown) [Compound 964]
> 7.00

Then this compound: CCc1cc2c(s1)CCO[C@@]21CCN(Cc2cnc(N[C@H]3CC[C@H](O)C3)nc2)[C@@H](C)C1 [Compound 204]
> 7.00

Then this compound: CCc1cc2c(s1)CCO[C@@]21CCN(Cc2cn(C(CO)[C@H](C)O)nn2)[C@@H](C)C1 (stereo partly shown) [Compound 193]
6.00 to 6.30

Then this compound: CCc1cc2c(s1)CCOC21CCN(Cc2cn(CC(O)C(C)(C)O)nn2)CC1 (stereo not shown) [Compound 1079]
6.30 to 7.00

Then this compound: C[C@H]1C[C@@]2(CCN1Cc1cn(C(C)(C)CO)nn1)OCCc1c2sc(C(F)(F)F)c1CO [Compound 1000]
6.00 to 6.30

Then this compound: COC1CO[C@@]2(CCN(Cc3cnn(CCS(C)(=O)=O)c3)[C@@H](C)C2)c2sc(Cl)cc21 (single isomer, unassigned) [Compound 842]
> 7.00

Then this compound: C[C@H]1C[C@@]2(CCN1Cc1cnn(CC(O)C3(O)CCOC3)c1)OC[C@@H](O)c1cc(C(F)(F)F)sc12 (stereo partly shown) [Compound 971]
> 7.00
